Property Name: melting point

Molecule	melting point
Cc1c(-c2ccccc2)c(C2=CC(N(C)C)CC2)c2oc(C3CC3)nc2c1C#N (stereo not drawn)	144 to 146 °C

Specify reported melting point for the molecule shown: CC12CCC(C1)C1(C)Oc3ccc(C4(c5ccc(C(=O)O)cc5)OCCO4)cc3C21C (stereo not drawn) 234 to 236 °C

State its melting point: COc1ccccc1OCCCc1nc(-c2ccc(Cl)cc2)co1 94 to 95 °C

---

Property Name: melting point

Compound	melting point
OCCCSc1csc2ccccc12	154 to 155 °C
CCC(CC)CC(=N)NC(=S)Nc1ccc(Cl)cc1	116 to 118 °C
Cc1n[nH]c(CC(=O)O)c1Oc1cc(Cl)cc(Cl)c1	156 to 158 °C

# evaluate next
Provide only the value of recorded melting point for CC(OCCc1ccc(-c2ccc(Cl)cc2)cc1)C(=O)O (configuration not stated) 90 to 92 °C

---

Readings of melting point for the listed compounds

Compound	Property Name	Result
O=Cc1ccc(-c2nc3ccccn3n2)cc1	melting point	246 to 247 °C
O=C(CCCCCC1(C(=O)O)CCCC1)CCCCCC1(C(=O)O)CCCC1	melting point	78 to 85 °C
CCc1nc2cccc(C)c2c(=O)n1-c1ccc(F)cc1	melting point	170 °C
COCn1c(=O)n(-c2ccc3c(c2)OCO3)c2ncccc21	melting point	152 to 153 °C
O=C1C(=Cc2cccc(C(F)(F)F)c2)SC(=S)N1N=c1sc2ccccc2s1	melting point	268 to 269 °C
CS(=O)(=O)ON=C(Cl)c1ccccc1	melting point	106 to 108 °C
O=C(CN1C(=O)C2(COc3ccc(-c4cccnc4)cc32)c2ccccc21)Nc1ccccc1F (stereo not drawn)	melting point	98 to 100 °C

As a next step, examine the compound that follows.
Using known records, supply melting point for O=C(O)c1cc(=O)c2c(OCC(O)COc3ccc(Br)cc3)cccc2o1 (stereo not drawn) 192 to 194 °C

---

Parameter: melting point. Scope: all listed entries.

Record excerpt, results attached:
Molecule	Property Name	Result
CC(C)CCS(=O)c1cccc(-c2nc(=O)c3ccccc3s2)n1 (configuration not stated)	melting point	59.5 to 61 °C
CCCc1nc2c(N)nc3ccccc3c2n1CCCCS(C)(=O)=O	melting point	202 to 204 °C
O=C(c1ccccc1Cl)c1cc(Cl)ccc1-n1ccnc1	melting point	146 to 148 °C
CNCC1Cc2cc(-c3ccccc3)cc(-c3ccccc3OC)c2O1 (configuration not stated)	melting point	140 to 143 °C
COc1ccc(C2(O)OC(=O)C(c3ccc4nsnc4c3)=C2Cc2cc(OC)c(OC3CCCC3)c(OC)c2)cc1 (configuration not stated)	melting point	40 to 41 °C

Output measured melting point for this item: CCOC(=O)c1cn(-c2nc(NC(C)(C)C)c(F)cc2F)c2c(Br)c(F)c(F)cc2c1=O 198 to 203 °C

Consider the molecule COC(=O)c1cnn(C)c1S(=O)(=O)NC(=O)Nc1nc(C)cc(OC)n1 . State its measured melting point. 183 to 184 °C

Assign melting point to the following record: O=C(O)CSCc1ccc([N+](=O)[O-])cc1 101 to 104 °C

Output melting point of COC(=O)c1ccc(OC(=O)Cl)cc1 52 to 53 °C

Given the molecule CC(C)c1ccc(N(Cc2ccc(N(C)C)cc2)C(=O)C2CCOc3ccc(F)cc32)cc1 (configuration not stated) , write its reported melting point. 95 to 98 °C

Give melting point for the following molecule: CN(Cc1sc2c(=O)c(C(=O)NCc3ccc(Cl)cc3)cn(C)c2c1COCC[Si](C)(C)C)C[C@@H](O)c1ccco1 110 to 113 °C

Respond only with melting point recorded for COc1ccc(C(CSc2ccccc2N)C(=O)O)cc1 (configuration not stated) 118 °C

Output measured melting point for this item: CCCCCCCNC(=O)c1ccc(CCCC)cc1 37 to 38 °C

Give melting point for the following molecule: CCOC(=O)[C@@]1(C)CSC(c2ccc(OCCOCCOC)cc2O)=N1 68 to 70 °C

Answer with the recorded melting point of Nc1ccc(C(=O)CCCCl)cc1[N+](=O)[O-] only. 150 °C

Tell me measured melting point for COc1cc(OC)c2c(C)cc(=O)[nH]c2c1 please. 239 to 240 °C

Identify melting point associated with the molecule O=C(NCCc1ccccc1)c1ccc(S(=O)(=O)Nc2ccccc2C(=O)O)cc1 242 to 244 °C
